From various publications: pIC50 for Serine/threonine-protein kinase B-raf (Homo sapiens, UniProt P15056).
pIC50: −log10 of the molar value.
pIC50 below 7 gives NOT MET; pIC50 at or above it gives MET.

Sample answers from the record:
{"columns": ["MOL SMILES", "GROUP LABEL"],
 "data": [
  ["COc1ccc(-c2c(C#N)c(N)nc3sc(C(N)=O)c(N)c23)cc1OC", "NOT MET"],
  ["CCNS(=O)(=O)Nc1cccc(Cn2cnc3c(F)c(Nc4ccc(C5CC5)cc4F)c(C(=O)NOCCO)cc32)c1", "MET"],
  ["O=C(CSc1nc2ccccc2c(=O)n1-c1ccc(Cl)cc1)Nc1ccc(-c2nc3ccccc3[nH]2)cc1", "MET"],
  ["CNS(=O)(=O)Nc1cccc(Cn2cnc3c(F)c(Nc4ccc(C5CC5)cc4F)c(C(=O)NOCCO)cc32)c1F", "MET"]
]}

Ask: Record `O=C(CSc1nc2sc3c(c2c(=O)n1-c1ccc(Cl)cc1)CCCC3)NNC(=O)Nc1ccc(Cl)c(C(F)(F)F)c1` ; criterion: pIC50 no lower than 7. Met?
Result: MET
